# Test system: VchCAST RNA-guided transposition machinery (E. coli BL21(DE3) host, lacZ target)
# assay.protocol: relative integration efficiency (T-RL orientation) vs wild-type transposon end (log2 (normalized fold change)); transposon end mutated: left end; higher = more efficient transposition
observation.type: relative integration efficiency (log2)

[[record]]
query_sequence = "AATGTTGTTGATGCAACCATAAAGTGATATTTATATTAATAAATATTAGTCGTTGAATTGGTGTTTTCAACCATATATTGATATCTCACAAAACAACCATAAGTTGATATTTTTGTGAATCGAGTATTTCAGCAAAACTACTGCAGTAAGAA"
observation_type = "relative integration efficiency (log2)"
measured = -3.31

[[record]]
query_sequence = "AATGTTGTTGATGCAACCATAAAGTGATATTTAATAATTATTTATAATCAGCAACTTAACCACAAAACAACCATATATTGATATCTCACAAAACAACCATAAGTTGATATTTTGTGAATCGAGTATTTCAGCAAAACTACTGCAGTAAGAAA"
observation_type = "relative integration efficiency (log2)"
measured = 0.0855

[[record]]
query_sequence = "AATGTTGTTGATGCAACCATAAAGTGATATTTAATAATTATCAACCATAAAGTGATATTTAACTTAACAACCATATATTGATATCTCACAAAACAACCATAAGTTGATATTTTTGTGAATCGAGTATTTCAGCAAAACTACTGCAGTAAGAA"
observation_type = "relative integration efficiency (log2)"
measured = -3.5

[[record]]
query_sequence = "AATGTTGTTGATGCAACCATAAAGTGATATTTAATAATTATTTATAATCAGCAACTTAACCACAAAACAACCCGCGCGGTCGCGAGACACCCCACCAACGCCTGGTCGCGGGGGTGTCCGATCTGATTTCAGCAAAACTACTGCAGTAAGAA"
observation_type = "relative integration efficiency (log2)"
measured = -7.91


---

# Tested on: VchCAST RNA-guided transposition machinery (E. coli BL21(DE3) host, lacZ target)
# assay.protocol: relative integration efficiency (T-RL orientation) vs wild-type transposon end (log2 (normalized fold change)); transposon end mutated: left end; higher = more efficient transposition
Could you label it 1 if measured relative integration efficiency (log2) is -3 or higher, and -1 otherwise?

[[record]]
query_sequence = "AATGTTGTTGATGCAACCATAAAGTGATATTTACGAATCAATTAAAATCATAGGCTTAATCGAAAAACAACCATATATTGATATCTCATAAAACAACCATAAGTTGATATTTTGGTGAAAAGGATATTCCAACCTTCATAGTTTAGTAAGAA"
assigned_category = 1

[[record]]
query_sequence = "AATGTTGTTGATGCAACCATAAAGTGATATTTAACAACCATAAAGTGATATTTAACTTAACCACAAACAACCATATATTGATATCTCACAAAACAACCATAAGTTGATATTTTTGTGAATCGAGTATTTCAGCAAAACTACTGCAGTAAGAA"
assigned_category = 1

[[record]]
query_sequence = "AATGTTGTTGATGCAACCATAAAGTGATATTTAACAACCATATATTGATATCTCACAAAACAACCATAAGTTGATATTTTTGTGAATCGAGTATTTCAGCAAAACTACTGCAGTAAGAAAGTTACTTCGTGGTATGGGAGGATCAAGGAGCC"
assigned_category = 1

[[record]]
query_sequence = "AATGTTGTTGATGCACCCATAAATTGATATTGCATAATTATTTATAATCAGCAACTTAACCACAAAACAACCATAAAATGATAATTAACAAAAGTTGGTATTCAACTATAAAATGTGAATCGAGTATTTCAGCAAAACTACTGCAGTAAGAA"
assigned_category = -1

[[record]]
query_sequence = "AATGTTGTTGATGCAACCATAAAGTGATATTTAATAACTTCGTATAATGTATCGTATACGAACGGTACAACCATATATTGATATCTCACAAAACAACCATAAGTTGATATTTTTGTGAATCGAGTATTTCAGCAAAACTACTGCAGTAAGAA"
assigned_category = -1

[[record]]
query_sequence = "AATGTTGTTGATGCAACCATACCTGTCGCGGGCCGCCGGCGGGCGCCGACTACCAGGCCAACACCCCACCAACGCGCGGTCGCGAGACACCCCACCAACGCCTGGTCGCGGGGGTGTCCGATCTGATTTCAGCAAAACTACTGCAGTAAGAA"
assigned_category = -1

[[record]]
query_sequence = "AATGTTGTTGATGCAACCATAAAGTGATATTTAATAATTATTTATAATCAGCAACTTAACCACAAAACAACCATATATTGATATACAAAACAACCATAAGTTGATATTTTTGTGAATCGAGTATTTCAGCAAAACTACTGCAGTAAGAAAGT"
assigned_category = -1

[[record]]
query_sequence = "AATGTTGTTGATGCAACCATAAAGTGATATTTAATAATTATTCAACCATAAAGTGATATTTAACTTACAACCATATATTGATATCTCACAAAACAACCATAAGTTGATATTTTTGTGAATCGAGTATTTCAGCAAAACTACTGCAGTAAGAA"
assigned_category = -1

[[record]]
query_sequence = "AATGTTGTTGATGCAACCATAAAGTGATATTTACAACCATATATTGATATCTCACAACAACCATAAGTTGATATTTTTGTGAATCGAGTATTTCAGCAAAACTACTGCAGTAAGAAAGTTACTTCGTGGTATGGGAGGATCAAGGAGCCAAT"
assigned_category = 1

[[record]]
query_sequence = "AATGTTGTTGATGCAACCATAAAGTGATATTTAATAATTATTTATAATCAGCAACTTAACCACAAAATGTGAATCGAGTATTTCAGCAAAACCAACCATATATTGATATCTCACAAAACAACCATAAGTTGATATTTTTACTGCAGTAAGAA"
assigned_category = -1

[[record]]
query_sequence = "AATGTTGTTGATGCAACCATAAAGTGAATAAATATAATTATTTATAATCAGCAACTTAACCACAAAACAACCATATATTGAATAGAGACAAAACAACCATAAGTTGAATAAAATGTGAATCGAGTATTTCAGCAAAACTACTGCAGTAAGAA"
assigned_category = -1

[[record]]
query_sequence = "AATGTTGTTGATGCAACCATAAAGTGATATTTAATAACTTCGTATAAGGTATACTATACGAAGTTATCAACCATATATTGATATCTCACAAAACAACCATAAGTTGATATTTTTGTGAATCGAGTATTTCAGCAAAACTACTGCAGTAAGAA"
assigned_category = -1

[[record]]
query_sequence = "AATGTTGTTGATGCAACCATAAAGTGATATTTAATAATTATTCAACCATATATTGATATCTCTATAATCAGCAACTTAACCACAAAAACAAAACAACCATAAGTTGATATTTTTGTGAATCGAGTATTTCAGCAAAACTACTGCAGTAAGAA"
assigned_category = -1

[[record]]
query_sequence = "AATGTTGTTGATGCAACCATAAAGTGATATTTAATAATTATTTATAATCAGCAACTTAACCACAAAACAACCATATATTGATATCTCACAAAACAACCATAATGGTCGCGGGGGTGTCCGATCTGATTTCAGCAAAACTACTGCAGTAAGAA"
assigned_category = 1

[[record]]
query_sequence = "AATGTTGTTGATGCAACCATAAAGTGATATTTAATAATTATTTATAATCAGCAACTTAACCACAAAACAACCATATATTGATATCTCACAAAAACCAACGCCTGGTCGCGGGGGTGTCCGATCTGATTTCAGCAAAACTACTGCAGTAAGAA"
assigned_category = 1

[[record]]
query_sequence = "AATGTTGTTGATGCAACCATAAAGTGATATTTAATAATTATTTATAATCAGCAACTTAACCACAAAACAACCATATATTGCGCGAGACACCCCACCAACGCCTGGTCGCGGGGGTGTCCGATCTGATTTCAGCAAAACTACTGCAGTAAGAA"
assigned_category = -1


---

Reported relative integration efficiency (log2) values are given for each entry in this list.
# Tested on: VchCAST RNA-guided transposition machinery (E. coli BL21(DE3) host, lacZ target)
# assay.protocol: relative integration efficiency (T-RL orientation) vs wild-type transposon end (log2 (normalized fold change)); transposon end mutated: left end; higher = more efficient transposition
observation.type: relative integration efficiency (log2)

[[record]]
query_sequence = "AATGTTGTTGATGCAACCATAAAGTGATATTTAATAATTATTTATAATACTACCAGGCCAACACCCCACCAACGCGCGGTCGCGAGACACCCCACCAACGCCTGGTCGCGGGGGTGTCCGATCTGATTTCAGCAAAACTACTGCAGTAAGAA"
measured = -6.5

[[record]]
query_sequence = "AATGTTGTTGATGTGTTGATCAACCATAAAGTGATATTTAATAATTATTTATAATCAGCAACTTAACCACAAAACAACCATATATTGATATCTCACAAAACAACCATAAGTTGATATTTTTGTGAATCGAGTATTTCAGCAAAACTACTGCA"
measured = -4.39

